# Test system: CEM cells HIV-1 protection, formazan growth assay
# assay.summary: NCI AIDS Antiviral Assay;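 active = compounds giving half or more protection of infected cells from virus-caused growth loss, again on retest; inactive = the rest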
*1 amine or outer side, *2 acyl side, *3 side chain or, on linkers, in order; H or OH if unused. Where a SMILES comes first, the peptide text is derived from it. [ ]: non-standard residue; d: D form. The star is where a group is joined. X3 = CC(=O)N(C)SCC(N[*:1])C(=O)[*:2]; Cbz = O=C(OCc1ccccc1)*; Bn = c1ccc(C*)cc1; For = O=C*
Choose the fitting class; nothing outside active, inactive is accepted.

Cc1ccc(SS(=O)(=O)c2ccc(C)cc2)cc1 | inactive
Cc1ccc(OC2CC(n3cnc4c(=O)[nH]c(Br)nc43)OC2Oc2ccc(C)cc2)cc1 (stereo not drawn) | inactive
O=S1ON=C(C2CCC(C3=NOS(=O)O3)C2)O1 (stereo not drawn) | inactive
CCN(CC)c1cccc2c1C1(O)CCC3(CC21)OCCCCO3 (stereo not drawn) | inactive
CC(=O)N(C)SCC(NC(=O)C(Cc1ccccc1)NC(=O)OCc1ccccc1)C(=O)NC(Cc1ccccc1)C(=O)NC(Cc1cn(C=O)c2ccccc12)C(=O)NC(CCCCNC(=O)OCc1ccccc1)C(=O)NC(C(=O)NC(CSN(C)C(C)=O)C(=O)NC(C(N)=O)C(C)OCc1ccccc1)C(C)OCc1ccccc1 (stereo not drawn) (Cbz-F[X3]FW(For)K(Cbz)T(Bn)[X3]T(Bn)-NH2; configuration not given here) | inactive
CC1=NN(C2=NS(=O)(=O)c3ccccc3N2C)C(=O)C1 | inactive

[Q] Given "COc1cc2c(cc1OC)CCc1cc(OC)c(OC)cc1CC2" , state the outcome it received in this test.
[A] inactive

[Q] Recorded call for CC(=O)c1cccc(NC(=O)C(=O)C(C(=O)c2ccccc2F)C2OC(=O)c3ccccc32)c1 (stereo not drawn) ?
[A] inactive

[Q] Entry "COC(=O)C1=C(C(=O)OC)C2C3CC4C(C13)C42" : call = ?
[A] inactive

----------
# System: CEM cells HIV-1 protection, formazan growth assay
# assay.summary: NCI AIDS Antiviral Assay
pEC50: −log10 of the molar value. Where a SMILES comes first, the peptide text is derived from it. Bridges are numbered along the chain shown (N, C = ends). Roman numbers before positions name the chains, in order.
Reported pEC50 is given for each of the following molecules.

Please review the following examples before continuing.
Cc1ncc([N+](=O)[O-])n1CCN(C)C(=O)CCCn1ccnc1[N+](=O)[O-] | < 3.70
N=c1c2ccccc2nc2oc3cc([N+](=O)[O-])ccc3n12 | < 3.71
c1ccc2c(c1)Cc1ccccc1-c1c-2[nH]c2ccccc12 | < 3.70
O=[N+]([O-])c1cc(S(=O)(=O)c2ccc(Cl)c([N+](=O)[O-])c2)ccc1Cl | < 3.70

[Q] What value of measured pEC50 is listed for NC(CSSCC(N)C(=O)NC(Cc1ccccc1)C(=O)O)C(=O)NC(Cc1ccccc1)C(=O)O (stereo not drawn) (I: H-Cys-Phe-OH / II: H-Cys-Phe-OH; disulfide I:1-II:1; configuration not given here) ?
[A] < 3.70

[Q] Value lookup for pEC50; key = "N#C/C(=C\NC(=S)N=Nc1c(O)[nH]c2ccccc12)C(=O)c1ccc2ccccc2c1"
[A] < 3.70

[Q] Request the reported pEC50 associated with "CNc1ccc2[nH]c(=O)ccc2c1[N+](=O)[O-]"
[A] < 4.92

[Q] What value of pEC50 has been recorded for this entry: "C/C(C=C(C#N)C#N)=C\c1ccc([N+](=O)[O-])cc1"
[A] < 4.94

[Q] For the molecule "CCC1(CC)SCC(=O)NC1=O" , what pEC50 is on record?
[A] < 3.70

----------
# EC50 listing for each entry below
# Test system: CEM cells HIV-1 protection, formazan growth assay
# assay.summary: NCI AIDS Antiviral Assay

CCOc1nc(-c2ccccc2)cc(-c2ccc(N3CCOCC3)cc2)c1C#N | > 200 µM
COc1ccc(-c2c3ccccc3c(-c3ccc(OCCBr)cc3)c3ccccc23)cc1 | > 100 µM
CC(=O)NC(CCC(=O)c1ccc(Cl)cc1)C(=O)O (stereo unspecified) | > 200 µM

[Q] Reported EC50, compound "COc1ccc(C(=O)CC(=O)C(=O)Nc2ccc(C)c(C)c2)cc1" : ____
[A] > 22.4 µM

[Q] Given CN1CCOC1c1ccccc1O (stereo unspecified) , state its recorded EC50.
[A] > 200 µM

[Q] Given "Cc1nc2cnc(Nc3ccccc3)nc2n(-c2ccccc2)c1=O" , state its recorded EC50.
[A] > 200 µM

----------
# Test system: CEM cells HIV-1 protection, formazan growth assay
# assay.summary: NCI AIDS Antiviral Assay
pEC50: −log10 of the molar value.
attribute.measured: pEC50

Worked cases, answers included:
O=[N+]([O-])c1c(/C=N/Nc2ccccc2)oc(-c2ccc3c(c2)OCO3)c1-c1ccc2c(c1)OCO2 | < 4.67
O=C(NC1CCCCC1)/C(=C\c1ccccc1)NC(=O)c1ccccc1 | < 3.70
CC(=O)NC(CCCNC(=O)NCCCl)C(=O)NCc1ccccc1 (stereo not given) | < 3.17

[Q] Fill in the recorded pEC50 for this compound, with CEM cells HIV-1 protection, formazan growth assay as test system: "N#Cc1ccc(S(=O)(=O)c2ccc(C#N)cc2)cc1"
[A] < 3.70

[Q] Given the entry "Cc1nc(C)c(N2CCN(Cc3ccccc3)CC2)c(=O)[nH]1" , what pEC50 was observed with CEM cells HIV-1 protection, formazan growth assay?
[A] < 3.70

[Q] API: value(readout= pEC50, system= CEM cells HIV-1 protection, formazan growth assay, query= CC1(C)OCC(C2OC(=O)C(OCc3ccccc3)=C2OCc2ccccc2)O1 (stereo not given) )
[A] < 3.70

[Q] Request: pEC50, test system CEM cells HIV-1 protection, formazan growth assay, entry O=C(CC(C(=O)c1cccs1)c1ccsc1)c1ccccc1 (stereo not given)
[A] < 3.70

[Q] For CEM cells HIV-1 protection, formazan growth assay, provide pEC50 of COc1ccc(C2CC(=O)CC(c3ccc(OC)cc3)C23C(=O)CCCC3=O)cc1 (stereo not given) please.
[A] < 3.70

[Q] Value wanted: pEC50 (CEM cells HIV-1 protection, formazan growth assay) of entry CCOC(=O)C1=C(C)NC2=C(C(=O)N(c3ccccc3)C2c2ccccc2)C1c1ccccc1 (stereo not given)
[A] < 4.38

[Q] So what pEC50 did "CN(C)CCNC(=O)c1ccccc1Nc1c(Cl)cccc1Cl" get with CEM cells HIV-1 protection, formazan growth assay?
[A] < 3.70

----------
Listing of entries alongside the reported EC50.
# Tested on: CEM cells HIV-1 protection, formazan growth assay
# assay.summary: NCI AIDS Antiviral Assay
# Description: The ability of compounds to protect human CEM cells from HIV-1 infection is measured as a screen for new compounds capable of inhibiting the HIV virus. Five concentrations of drug were tested on uninfected and infected cells and cell growth was measured using a soluble formazan assay. […] Compounds that provided at least 50% protection were retested. Compounds that provided at least 50% protection on retest were listed as moderately active. […]
Where a SMILES comes first, the peptide text is derived from it. [ ]: non-standard residue; d: D form. The star is where a group is joined. Cbz = O=C(OCc1ccccc1)*; Aib = CC(C)(N)C(=O)O; OBn = c1ccc(CO*)cc1

Example compounds with recorded EC50:
CC(NC(=O)C(C)(C)NC(=O)C(CC(=O)OCc1ccccc1)NC(=O)OCc1ccccc1)C(N)=O (stereo not given) (Cbz-Asp(OBn)-[Aib]-Ala-NH2; configuration not given here) | > 200 µM
CC1N=C(c2ccccn2)C(c2ccccn2)=NC1c1ccccc1 (stereo not given) | > 79.4 µM
CC(C)=CCc1c(O)c(CC2=C(O)C(C)=C(O)C(CC=C(C)C)(C(=O)C(C)C)C2=O)c(O)c(C(=O)C(C)C)c1O (stereo not given) | > 100 µM
CCOC(=O)NC1C2CC(=O)C(O2)C1OCc1ccccc1 (stereo not given) | > 309 µM
S=c1sc2ccccc2n1CN1CCN(Cc2ccccc2)CC1 | > 200 µM
O=C1NC2(O)C(=O)c3ccccc3C2(O)N1 (stereo not given) | > 1120 µM

[Q] Given "COC(=O)c1ccc(/C=C2\CCc3ccccc3C2=O)cc1" , state its recorded EC50.
[A] > 200 µM

[Q] Look up EC50: "O=C1NC(=O)/C(=C/c2ccc(S(=O)(=O)N/N=C/c3ccccc3)cc2)N1"
[A] > 200 µM

[Q] Which EC50 is listed for "CCC(CCN)(CCN)[N+](=O)[O-]" ?
[A] > 200 µM

[Q] Quick one: EC50 of "O=C(O)Cc1cc(=O)oc2cc(O)c(Cl)cc12" ?
[A] > 708 µM

----------
# Tested on: CEM cells HIV-1 protection, formazan growth assay
# assay.summary: NCI AIDS Antiviral Assay
Where a SMILES comes first, the peptide text is derived from it.
attribute.measured: EC50

O=c1c(Cc2ccccc2)c(O)n(Cc2nc3ccccc3[nH]2)c(=S)n1-c1ccccc1 | > 200 µM
NCCCCC(NC(=O)C(CO)NC(=O)C(N)Cc1cnc[nH]1)C(=O)NC(Cc1ccccc1)C(=O)NC(Cc1c[nH]c2ccccc12)C(=O)NC(Cc1c[nH]c2ccccc12)C(N)=O (stereo not drawn) (H-HSKFWW-NH2; configuration not given here) | > 50.1 µM

Next molecule, EC50 to be filled in.
[Q] What value of EC50 has been reported for the following molecule? C=CC1=C(C)C2=NC1=CC1=NC(=CC3=C(C)C4=C(O)C(C(=O)OC)C(=C5NC(=C2)C(C)C5CCC(=O)OC/C=C(\C)CCCC(C)CCCC(C)CCCC(C)C)C4=N3)C(CC)=C1C (stereo not drawn)
[A] > 100 µM
